Value source: patent US8067442B2

# study_system: HCV polymerase (NS5B570n-Con1) (Hepatitis C virus genotype 1b)
# Construct: a 21 amino acid C-terminal deletion of full-length HCV polymerase
# experiment_notes: biochemical
# Experimental: The enzymatic activity of HCV polymerase (NS5B570n-Con1) was measured as the incorporation of radiolabeled nucleotide monophosphates into acid insoluble RNA products. […] The amount of light emitted from the scintillant was converted to counts per minute (CPM) on a Topcount® plate reader (Perkin-Elmer, Energy Range: Low, Efficiency Mode Normal, Count Time: 1 min, Background Subtract: none, Cross talk reduction: Off). Data was analyzed in Excel® (Microsoft®) and ActivityBase® (Idbs®). […]
assay_readout: log10(IC50) (log10 of the value in µM)

# molecule, log10(IC50)
data = [
    ("CC(C)(C)c1cc(-c2ccc[nH]c2=O)cc2ccoc12 [Compound I-2]", -0.69),
    ("CC(C)(C)c1cc(-c2ccc[nH]c2=O)cc2c(C(=O)N3CC[C@H](CNS(C)(=O)=O)C3)coc12 [Compound I-72]", -2.10),
    ("CCS(=O)(=O)NC[C@H]1CCN(C(=O)c2coc3c(C(C)(C)C)cc(-c4ccc[nH]c4=O)cc23)C1 [Compound I-106]", -1.77),
    ("CC(C)(C)c1cc(-c2ccc[nH]c2=O)cc2c(C(=O)O)coc12 [Compound I-4]", -0.42),
    ("CC(C)(C)c1cc(-c2ccc[nH]c2=O)cc2c(CC#N)coc12 [Compound I-5]", -0.48),
]
